# protocol.description: Phase 1 single- and multiple-dose study: plasma pharmacokinetics
# Assay type: in vivo
# experimental.parameters: human, po, 18 mg, single oral dose 18 mg, fasted
endpoint.label: Tmax (h)
Number only, in h; omit the unit.

Enquiry: Provide Tmax value for the following compound: `O=C(OC(C(F)(F)F)C(F)(F)F)N1CCN(Cc2ccc(C(F)(F)F)cc2N2CCCC2)CC1`
Return: 2

====

# protocol.description: Phase 1 single- and multiple-dose study: plasma pharmacokinetics
# Type: in vivo
# experimental.parameters: human, po, 100 mg, single oral dose 100 mg, Panel B, Period 4 (B4), fasted, read-out: AUCinf (mean)
# Description: General Design and Methodology: The purpose of this study is to assess the initial safety, tolerability, pharmacokinetics, and pharmacodynamics of Compound 1 (administered as Capsules of the hydrochloride salt of Compound 1) in healthy adults. […] PK: Descriptive statistics are provided by treatment (Part 1) and by treatment and day (Part 2). […] Time to steady-state, and evaluation of PK linearity are evaluated in an exploratory fashion.
endpoint.label: AUC(0-inf) (ng·h/mL)
Number only, in ng·h/mL; omit the unit.

Enquiry: Provide AUC(0-inf) value for the following compound: O=C(OC(C(F)(F)F)C(F)(F)F)N1CCN(Cc2ccc(C(F)(F)F)cc2N2CCCC2)CC1 [Compound 1]
Return: 512

====

# protocol.description: Phase 1 single- and multiple-dose study: plasma pharmacokinetics
# Format: in vivo
# experimental.parameters: human, po, 18 mg, single oral dose 18 mg, fasted, read-out: AUCinf (mean)
endpoint.label: AUC(0-inf)

Enquiry: Provide AUC(0-inf) value for the following compound: O=C(OC(C(F)(F)F)C(F)(F)F)N1CCN(Cc2ccc(C(F)(F)F)cc2N2CCCC2)CC1 [Compound 1]
Return: 109 ng·h/mL

====

# protocol.description: Phase 1 single- and multiple-dose study: plasma pharmacokinetics
# Type: in vivo
# experimental.parameters: human, po, 2 mg, single oral dose 2 mg, fasted, read-out: T1/2 (median) (converted)
endpoint.label: half-life (h)
Number only, in h; omit the unit.

Enquiry: Provide half-life value for the following molecule: `O=C(OC(C(F)(F)F)C(F)(F)F)N1CCN(Cc2ccc(C(F)(F)F)cc2N2CCCC2)CC1`
Return: 1.51

====

# protocol.description: Phase 1 single- and multiple-dose study: plasma pharmacokinetics
# Type: in vivo
# experimental.parameters: human, po, 50 mg, single oral dose 50 mg, fasted, read-out: T1/2 (median) (converted)
endpoint.label: half-life (h)
Number only, in h; omit the unit.

Enquiry: Provide half-life value for the following compound: `O=C(OC(C(F)(F)F)C(F)(F)F)N1CCN(Cc2ccc(C(F)(F)F)cc2N2CCCC2)CC1`
Return: 3.44

====

# protocol.description: Phase 1 single- and multiple-dose study: plasma pharmacokinetics
# Format: in vivo
# experimental.parameters: human, po, 50 mg, single oral dose 50 mg, fasted, read-out: AUCinf (mean)
endpoint.label: AUC(0-inf) (ng·h/mL)
Number only, in ng·h/mL; omit the unit.

Enquiry: Provide AUC(0-inf) value for the following compound: `O=C(OC(C(F)(F)F)C(F)(F)F)N1CCN(Cc2ccc(C(F)(F)F)cc2N2CCCC2)CC1`
Return: 296

====

# target.entity: MGLL (Canis lupus familiaris, UniProt A0A8I3PC77)
# Sequence (A0A8I3PC77 1-304): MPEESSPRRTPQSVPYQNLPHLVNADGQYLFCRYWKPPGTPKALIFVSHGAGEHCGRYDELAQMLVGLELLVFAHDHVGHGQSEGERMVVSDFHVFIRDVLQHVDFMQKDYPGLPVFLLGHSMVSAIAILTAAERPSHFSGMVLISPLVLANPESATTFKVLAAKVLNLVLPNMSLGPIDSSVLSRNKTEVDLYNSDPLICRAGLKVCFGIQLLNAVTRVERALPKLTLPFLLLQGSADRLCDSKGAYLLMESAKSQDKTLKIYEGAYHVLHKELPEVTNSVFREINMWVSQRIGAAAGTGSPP
# protocol.description: biochemical
# experimental.parameters: MGLL IC50, dog MGLL; summary statement for all species
pIC50: −log10 of the molar value.
endpoint.label: pIC50

Enquiry: Provide pIC50 value for the following molecule: `O=C(OC(C(F)(F)F)C(F)(F)F)N1CCN(Cc2ccc(C(F)(F)F)cc2N2CCCC2)CC1`
Return: > 7.52

Data origin: patent US11034674B2
